Source: patent US7585859B2

# assay_system: full-length human PDE4B2 isozyme (Homo sapiens, UniProt Q07343)
# Construct: The full-length human PDE4B2 isozyme; His6 (N); TEV cleavage site (N); made in house; host or cells: baculovirus infected insect cells (unpurified lysate)
# Sequence (Q07343 1-564 isoform Q07343-2): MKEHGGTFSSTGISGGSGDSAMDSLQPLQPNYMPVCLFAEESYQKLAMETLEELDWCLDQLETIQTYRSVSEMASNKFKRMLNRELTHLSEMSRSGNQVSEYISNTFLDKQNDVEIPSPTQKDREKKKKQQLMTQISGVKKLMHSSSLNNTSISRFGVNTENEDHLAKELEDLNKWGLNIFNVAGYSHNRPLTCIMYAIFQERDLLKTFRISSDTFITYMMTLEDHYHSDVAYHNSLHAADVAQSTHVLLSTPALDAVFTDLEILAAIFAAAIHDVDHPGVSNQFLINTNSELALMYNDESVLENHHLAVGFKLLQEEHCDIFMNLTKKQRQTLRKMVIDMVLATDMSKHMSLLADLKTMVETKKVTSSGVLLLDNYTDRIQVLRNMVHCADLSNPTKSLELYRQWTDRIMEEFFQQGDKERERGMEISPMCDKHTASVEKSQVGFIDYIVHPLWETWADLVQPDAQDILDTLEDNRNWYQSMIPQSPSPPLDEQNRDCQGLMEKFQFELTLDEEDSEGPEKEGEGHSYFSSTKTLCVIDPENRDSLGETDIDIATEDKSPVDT
# experiment_description: PDE4 IC50 determination by Scintillation Proximity Assay, PDE4B2
# Format: biochemical
# experimental_context: Table 1B, Formula I compounds; read-out: IC50 PDE4B2
# Experimental: IC50s were determined by Scintillation Proximity Assay (SPA). The principle of the assay is based on the fact that cAMP, the PDE4 substrate, binds weakly to Yittrium Silicate SPA beads, whereas AMP, the product of PDE4 hydrolysis binds strongly. Thus, the extent of PDE4 hydrolysis of a sample of [^3H]cAMP can be measured because only the [^3H]AMP produced by PDE4 hydrolysis will bind to the SPA beads and produce a scintillation signal. PDE4 enzymes used for IC50 assays were: […]
reported_metric: IC50

Consider the reported IC50 for these compounds:
# structure, reported_metric, measured
records = [
    ("N#Cc1c(NC2CCCC2)sc(C(=O)c2cc(-c3ccccc3)no2)c1N", "IC50", "< 10 µM"),
    ("Nc1c(C(=O)c2cc(-c3ccccc3)no2)sc(NC2CCCC2)c1C(=O)O", "IC50", "< 10 µM"),
]

**Query** // lookup IC50 for N#Cc1c(NC2CCCCC2)sc(C(=O)c2cc(-c3ccccc3)no2)c1N
**Result** > 10 µM

* * *

# assay_system: PDE4B: The catalytic domain of human PDE4B from S152-S528 (Homo sapiens, UniProt Q07343)
# Construct: His6 (N); thrombin cleavage site (N); made in house; host or cells: E. coli
# Sequence (Q07343 with tags, fused parts or gaps): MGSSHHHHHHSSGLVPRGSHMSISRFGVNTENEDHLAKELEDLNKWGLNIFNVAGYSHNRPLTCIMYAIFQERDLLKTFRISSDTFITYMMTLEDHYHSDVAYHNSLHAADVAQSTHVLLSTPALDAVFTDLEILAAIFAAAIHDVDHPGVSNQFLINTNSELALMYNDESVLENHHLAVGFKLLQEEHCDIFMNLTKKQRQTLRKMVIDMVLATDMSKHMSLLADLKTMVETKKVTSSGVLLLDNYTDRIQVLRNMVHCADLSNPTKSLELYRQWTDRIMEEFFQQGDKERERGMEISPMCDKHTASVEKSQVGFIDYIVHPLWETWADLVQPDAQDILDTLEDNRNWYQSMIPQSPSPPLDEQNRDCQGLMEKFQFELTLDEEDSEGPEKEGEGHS
# experiment_description: PDE4 IC50 determination by Scintillation Proximity Assay, PDE4B
# Type: biochemical
# experimental_context: Table 1B, Formula I compounds; read-out: IC50 PDE4B
pIC50: −log10 of the molar value.
reported_metric: pIC50

# molecule, pIC50
records = [
    ("N#Cc1c(NC2CCCC2)sc(C(=O)c2cccc(Cl)c2)c1N", "> 5.00"),
    ("CN1CCN(C(=O)C(=O)c2sc(NC3CCCC3)c(C#N)c2N)CC1", "< 5.00"),
    ("N#Cc1c(NCCN2CCCCC2)sc(C(=O)c2ccccn2)c1N", "< 5.00"),
    ("COc1ccc(OC)c(C(=O)c2sc(Nc3ccc4c(c3)CCC4)c(C#N)c2N)c1", "> 5.00"),
    ("COc1ccc(C(=O)c2sc(Nc3ccccc3F)c(C#N)c2N)c(OC)c1", "> 5.00"),
    ("N#Cc1c(Nc2ccc(C(=O)NC3CCOC3=O)cc2)sc(C(=O)c2ccccn2)c1N (stereo not drawn)", "> 5.00"),
    ("Cc1cc(Cl)ccc1Nc1sc(C(=O)c2cc3cc(Cl)ccc3o2)c(N)c1C#N", "< 5.00"),
    ("CCC(C)Nc1sc(C(=O)c2cc(-c3ccc(Cl)c(Cl)c3)no2)c(N)c1C(N)=O (stereo not drawn)", "> 5.00"),
    ("N#Cc1c(Nc2ccc(Cl)cc2)sc(C(=O)c2sccc2Cl)c1N", "> 5.00"),
    ("NC(=O)c1c(Nc2ccccc2)sc(C(=O)c2ccccc2)c1N", "< 5.00"),
]

**Query** Data request, read-out pIC50, for COc1ccccc1Nc1sc(C(=O)c2ccc(C)cc2)c(N)c1C#N
**Result** > 5.00

**Query** Sample Cc1sc(-c2ccccc2)cc1C(=O)c1sc(NC2CCCC2)c(C#N)c1N — what was its pIC50?
**Result** > 5.00

**Query** Item Cc1onc(-c2ccccc2)c1C(=O)c1sc(Nc2ccccc2F)c(C#N)c1N has what recorded pIC50?
**Result** > 5.00

**Query** // lookup pIC50 for N#Cc1c(NC2CCCC2)sc(C(=O)c2ccccc2Cl)c1N
**Result** > 5.00

**Query** Fill in: pIC50 of CCOC(=O)c1sc(NC2CCCC2)c(C#N)c1N is ___
**Result** > 5.00

**Query** // lookup pIC50 for COc1ccc(CNc2sc(C(=O)c3ccccc3Cl)c(N)c2C#N)cc1OC
**Result** > 5.00

**Query** Return reported pIC50; argument: Cc1onc(-c2ccccc2)c1C(=O)c1sc(Nc2ccc(C(=O)NC3CCOC3=O)cc2)c(C#N)c1N (stereo not drawn)
**Result** > 5.00

**Query** Look up pIC50 for this molecule: Cc1c(Nc2ccc(Oc3ccccc3)cc2)sc(C(=O)c2ccccc2)c1N
**Result** > 5.00
